EXPERIMENTAL TARGET: His-tagged FOLR1 human recombinant protein (11241-H08H, SinoBiological) (human) (UniProt P15328)
ASSAY OVERVIEW: ELISA
Positions of bridges follow the written chain, without caps; N, C: chain ends. Non-standard residues stand in square brackets, D forms with d. Primed or numbered codes have the meaning given here. No end group written: not given here. *: point of attachment. DOTA = O=C(O)CN1CCN(CC(=O)O)CCN(CC(=O)*)CCN(CC(=O)O)CC1; Biotin = O=C1N[C@H]2[C@H](CS[C@H]2CCCCC(=O)*)N1; Butanoyl(4-(4-MePh)) = Cc1ccc(CCCC(=O)*)cc1; Lys(N3) = [N-]=[N+]=NCCCC[C@H](N)C(=O)O; PEG10′ = PEG spacer, 10 units; Pra = C#CC[C@H](N)C(=O)O
Listing: pEC50 of selected binders
Schema: pEC50 number; meaning minus log10 of the concentration expressed in molar units.

Reference set, count: 5
BINDER	pEC50
[dH][dS][dH][dT][dA][Lys(N3)] (triazole N-C; not fully specified (N-terminus); also: folate joined through PEG linker and Tz (triazole) attachment) [folate-hshta Tz heterobiligand]	9.97
Fol-[dH][dS][dH][dT][dA]K(DOTA)[PEG10′][PEG10′]K(Biotin) (not fully specified (some residues, bridges); printed as Folate-hshta-DOTA) [Folate-hshta-DOTA: folate-hshta with the tag Lys(DOTA)-PEG10-PEG10-Lys(Biotin)]	10.01
[dD][dE][dR][dY][dT][Lys(N3)] (triazole N-C; not fully specified (N-terminus); printed as Pra(Az4-PEG3-folate)-deryt; also: N-terminal Pra joined by Tz (triazole) linker to Az4-PEG3-folate) [Pra(Az4-PEG3-folate)-deryt heterobiligand]	9.57
[dK][dY][dE][dE][dT][Lys(N3)] (triazole N-C; not fully specified (N-terminus); also: folate joined through PEG linker and Tz (triazole) attachment) [folate-kyeet Tz heterobiligand]	9.83
K[dD][dE][dR][dY][dT] (not fully specified (residue 1, C-terminus, bridges); also: macrocycle (click Pra/Az4 or amide variant), ends not placed) [Lys(PEG3-Folate)-deryt heterobiligand]	9.80

Write down pEC50 measured for item [Pra][dH][dS][dH][dT][dA][Lys(N3)] (triazole N-C; also: further groups not given here) [hshta (SEQ ID NO:6) macrocyclic peptide ligand (PCC)]
5.41

Return the recorded pEC50 value; entry: Fol-[dH][dS][dH][dT][dA][PEG10′][PEG10′]K(Biotin) (not fully specified (bridges); printed as folate-hshta) [folate-hshta (SEQ ID NO:6) NTerm heterobiligand, Folate-hshta-PEG10-PEG10-K(Biotin)]
10.19

Report measured pEC50; entry is Fol-[dH][dS][dH][dT][dA]K(Butanoyl(4-(4-MePh)))[PEG10′][PEG10′]K(Biotin) (not fully specified (some residues, bridges); printed as Folate-hshta-MPBA) [Folate-hshta-MPBA: folate-hshta with the tag Lys(4-MPBA)-PEG10-PEG10-Lys(Biotin)]
9.96

Return pEC50 (reported value) for this binder: [Pra][dD][dE][dR][dY][dT][Lys(N3)] (triazole N-C) [deryt (SEQ ID NO:20) macrocyclic peptide ligand (PCC)]
5.00

The measurements presented in this section are drawn from patent US20240180856A1.
